B1: EPB41L3 (parent)
chain: FRFAPNHTKELEDKVIELHKSHRG

Variants of: B1
Experiment: protein stability index of a GFP-peptide fusion (GPS, HEK-293T) (PSI 1-6); higher = more stable;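 note: lentivirally expressed fusions sorted by FACS into six bins by GFP to DsRed ratio, PSI derived from sequencing read proportions per bin multiplied by bin number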
Conditions: c terminus: a fixed tail appended
Experimental endpoint: protein stability index
Quick one: just the number, no unit, thanks!

Examples from the recorded data:
E10R	1.95
E17D	2.18
A4R	3.33
K14I	2.66
A4S	3.9
H19R	2.19
K14A	2.34
P5L	2.75
F3M	4.02
P5D	3.38

IN: What measured protein stability index goes with `K14V` ?
OUT: 2.2

IN: Suppose we examine the variant `E12A` ; what protein stability index value has been reported?
OUT: 1.99

Hey, just so you know, these numbers are from the supplement of paper PMC10567573.
